Assay: Cell Viability - BJ (AID 421);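 also: potency is read from the fitted curve at half-maximal effect; cells exposed to compound for 40 hours at 37 °C before readout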
Conditions: BJ fibroblast viability, qHTS
Description: NIH Chemical Genomics Center [NCGC] NIH Molecular Libraries Screening Centers Network [MLSCN] National Institutes of Environmental Health Sciences [NIEHS] National Toxicology Program [NTP] We have developed a 1536-well cell-based assay for quantitative high throughput screening (qHTS) against a number of cell lines to determine in vitro cytotoxicity of small molecules. […] 8. Detection; Luminescence; Viewlux plate reader […]
Records with an inconclusive call do not appear. Active and inactive are the calls of the source. Calls follow the shape of the full dose curve.
Choose the fitting class; nothing outside yes = active, no = inactive is accepted.

Previously resolved entries follow.
[[record]]
compound = "CCCCCCN"
label = "no"

[[record]]
compound = "CC1=C(/C=C/C(C)=C/C=C/C(C)=C/C=O)C(C)(C)CCC1"
label = "yes"

[[record]]
compound = "c1c[nH]cn1"
label = "no"


Outcome logged for OC1CCCCC1 in this assay:
no

Outcome logged for c1ccc2ncccc2c1 in this assay:
no

Outcome logged for CCCCOC(=O)COc1ccc(Cl)cc1Cl in this assay:
no

Outcome logged for OCC(CBr)(CBr)CBr in this assay:
no

* * *

biological target: Lysosomal acid glucosylceramidase (Homo sapiens) (UniProt P04062); test: Glucocerebrosidase-p2 (AID 348); conditions: purified GBA, blue fluorogenic substrate, 40 min; also: potency is read from the fitted curve at half-maximal effect
Sequence (P04062 whole entry, looked up): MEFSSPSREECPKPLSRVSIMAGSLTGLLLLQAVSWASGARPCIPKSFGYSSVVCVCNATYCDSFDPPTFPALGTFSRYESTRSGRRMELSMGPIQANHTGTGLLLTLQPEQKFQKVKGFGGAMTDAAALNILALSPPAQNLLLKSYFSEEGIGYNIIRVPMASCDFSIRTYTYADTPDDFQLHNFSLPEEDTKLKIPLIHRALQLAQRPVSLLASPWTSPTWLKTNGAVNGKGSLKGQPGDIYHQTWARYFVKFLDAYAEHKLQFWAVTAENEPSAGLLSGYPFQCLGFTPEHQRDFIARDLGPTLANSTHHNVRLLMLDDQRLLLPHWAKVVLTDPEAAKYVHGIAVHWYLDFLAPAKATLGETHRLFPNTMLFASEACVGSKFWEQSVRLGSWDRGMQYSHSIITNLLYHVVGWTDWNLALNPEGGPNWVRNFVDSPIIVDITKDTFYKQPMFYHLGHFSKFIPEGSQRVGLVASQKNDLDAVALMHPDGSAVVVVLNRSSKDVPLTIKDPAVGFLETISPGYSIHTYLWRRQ
Active and inactive are the calls of the source. Cut-off read from the data, not from the text of the source: active = potency below about 10 µM; inactive = the rest.
Choose the fitting class; nothing outside active, inactive is accepted.

[[record]]
molecule = "NS(=O)(=O)c1cc(C(=O)O)c(Cl)c([N+](=O)[O-])c1Cl"
label = "inactive"


Outcome logged for Oc1c([C@H](Nc2ccccn2)c2ccccc2)ccc2cccnc12 in this assay:
inactive

Outcome logged for O=C(O)[C@@H](Br)[C@@H](Br)c1ccccc1[N+](=O)[O-] in this assay:
inactive

Outcome logged for O=C(O)c1ccccc1-c1ccccc1C(=O)Nc1ccc2c(c1)Cc1cc(F)ccc1-2 in this assay:
inactive

Outcome logged for CC1(C)N=C(N)N=C(N)N1c1cccc(OCc2cccc(N)c2)c1 in this assay:
inactive

Outcome logged for Cn1c(=O)c2c(ncn2CN2CCN(Cn3cnc4c3c(=O)n(C)c(=O)n4C)CC2)n(C)c1=O in this assay:
inactive

Outcome logged for Cc1ccc(C)c([C@@H]2NC(=O)c3ccccc3N2)c1 in this assay:
inactive

Outcome logged for COc1ccc(-n2c(=O)c(-c3cccs3)nc3cnc(Oc4ccccc4)nc32)cc1 in this assay:
inactive

Outcome logged for O=C1c2ccccc2C(=O)c2c(Nc3cc4c5c(ccc6c7ccc8c9c(cc(Nc%10cccc%11c%10C(=O)c%10ccccc%10C%11=O)c(c3c56)c97)-c3ccccc3C8=O)C(=O)c3ccccc3-4)cccc21 in this assay:
inactive

Outcome logged for COc1ccc(Cc2ccccc2C(=O)O)c2ccccc12 in this assay:
inactive

Outcome logged for Cc1nc2sc3c(c2c(=O)[nH]1)CCCC3 in this assay:
inactive

Outcome logged for O=C(O)Cc1[nH]cnc1C(=O)O in this assay:
inactive

Outcome logged for CCNc1ncc2nc(CCc3ccccc3)c(=O)n(-c3ccc(OC)cc3)c2n1 in this assay:
inactive

Outcome logged for O=c1ccc(-c2ccccc2)n[nH]1 in this assay:
inactive

Outcome logged for CC(C)[C@H](Sc1nc(N)nc2nc[nH]c12)C(=O)O in this assay:
inactive

Outcome logged for O=C(O)Cc1cccc2c(=O)cc(-c3ccccc3)oc12 in this assay:
inactive
